Overview of reported TGI across a group of compounds:
- System: MDA-MB-435
- assayText: NCI tumour cell line growth inhibition, 48 h
parameterMeasured: TGI

{"compound": "COC(CN(C=O)[C@@H](c1ccc(Cl)cc1)c1cc2ccccc2o1)OC", "reading": "35.5 µM"}
{"compound": "COc1ccc(C(=O)N(C(=O)N2CCN(c3ccccc3)CC2)S(=O)(=O)c2ccccc2)cc1", "reading": "> 100 µM"}
{"compound": "C/C1=C\\C/C=C(\\C)[C@H]2CC(CC/C(C)=C/CC1)[C@](C)(C=O)O2", "reading": "> 100 µM"}
{"compound": "C[C@@H]1OC(=O)C[C@H]2CC(=O)N(CCC3CN(S(=O)(=O)C(F)(F)F)c4ccccc43)C[C@@H]21 (stereo partly drawn)", "reading": "> 100 µM"}
{"compound": "CCOC(=O)CCC(NC(=O)c1ccc(Nc2cnc3ccc(C(F)(F)F)cc3n2)cc1)C(=O)OCC (stereo not drawn)", "reading": "> 100 µM"}
{"compound": "O=[N+]([O-])c1ccc2c(c1)nc(Cc1ccc(Cl)cc1)n2C[C@@H]1CCCN2CCCCC12 (stereo partly drawn)", "reading": "28.3 µM"}
{"compound": "C[C@@H](Oc1ccc2[nH]nc(/C=C/c3cnn(CCO)c3)c2c1)c1c(Cl)cncc1Cl", "reading": "3.12 µM"}
{"compound": "O=C(NNS(=O)(=O)c1ccc(F)cc1)c1cccnc1Nc1ccc(Cl)cc1Cl", "reading": "> 100 µM"}
{"compound": "CCCC(=O)OCC1OC(n2cc(F)c(=O)[nH]c2=O)C(F)C1OC(=O)CCC (stereo not drawn)", "reading": "> 100 µM"}
{"compound": "Nc1cc(N2CCOCC2)nc(=O)n1-c1ccc(Cl)cc1", "reading": "> 100 µM"}
{"compound": "c1ccc2cc(Cn3c[n+](Cc4ccc5ccccc5c4)c4ccccc43)ccc2c1", "reading": "2.74 µM"}
{"compound": "COc1cc2c(cc1OCCCCCCCCN1C(=O)c3cccc4cccc(c34)C1=O)N=C[C@@H]1CCCN1C2=O", "reading": "51.7 µM"}
{"compound": "CCOC(=O)C1=COC(C)(c2ccccc2)CC1=O (stereo not drawn)", "reading": "> 100 µM"}
{"compound": "C[C@]12C3CC[C@@]4(CO)C[C@]3(CCC1[C@](C)(C(=O)O)CC[C@@H]2O)CC4=O (stereo partly drawn)", "reading": "> 100 µM"}
{"compound": "COc1cc(NCC2COc3c(ccc(OC)c3OC)C2=O)c([N+](=O)[O-])cc1OC (stereo not drawn)", "reading": "> 100 µM"}
{"compound": "O=C1c2ccn(CCCCN3CCCCC3)c2C(=O)c2c1c(O)c1ccccc1c2O", "reading": "5.27 µM"}
{"compound": "O[C@H]1[C@H]2[C@H](O)C[C@H](CCOCc3ccccc3)CN2C[C@H]1O", "reading": "> 100 µM"}
{"compound": "CCCSc1ccc2[nH]c(N3C(=O)/C(=C/c4cc(OC)c(OC)c(OC)c4)N=C3c3ccccc3)cc2c1", "reading": "16 µM"}
{"compound": "O=c1[nH]c(Nc2ccc(Cl)cc2)nc2nc[nH]c12", "reading": "> 100 µM"}
{"compound": "O=S(=O)(O)/C(=C\\c1ccccc1)c1ccccc1 (tested in a mixture with another compound)", "reading": "> 100 µM"}
{"compound": "CN1CCN(c2ccc(NC3=C(Cl)C(=O)c4ncccc4C3=O)cc2C#N)CC1", "reading": "3.67 µM"}
{"compound": "COc1cc(C2=NN(c3ccc(S(N)(=O)=O)cc3)C(c3ccc(Cl)cc3)C2)cc(OC)c1OC (stereo not drawn)", "reading": "> 100 µM"}
{"compound": "C1=CC(=[N+]2N=C(c3ccccc3)CC2c2ccccc2)C=CC1=C1SC(c2ccccc2)(c2ccccc2)c2ccccc21 (stereo not drawn)", "reading": "> 100 µM"}
{"compound": "CC(C)(CC#N)c1cc(CC(C)(C)c2cc(CC(C)(C)c3cc(C(C)(C)C4(C)OCCO4)no3)no2)no1", "reading": "> 100 µM"}
{"compound": "COc1ccc(NS(=O)c2ccccc2OC)cc1 (stereo not drawn)", "reading": "> 100 µM"}
{"compound": "O=C(Cn1c2ccc(Br)cc2c2nc3ccccc3nc21)N/N=C/c1ccccc1", "reading": "> 100 µM"}
{"compound": "C/C1=C/C(=O)O[C@@H]2C[C@@H](CC[C@H](C)/C=C\\C=C\\CC1)O[C@@](OCCc1ccccc1)([C@@H]1CSC(=O)N1)C2", "reading": "6.12 µM"}
{"compound": "C[C@H](CCC(=O)O)[C@H]1CC[C@H]2[C@@H]3[C@H](O)C[C@@H]4C[C@H](O)CC[C@]4(C)[C@H]3CC[C@]12C", "reading": "> 100 µM"}
